# Measurement Target: GST-hPPARγ2 (Homo sapiens)
# Construct: the complete cDNA of the […] human PPARs were cloned into pGEX4T2; made in house; host or cells: Escherichia coli BL21 (DE3)
# Sequence (P37231 whole entry): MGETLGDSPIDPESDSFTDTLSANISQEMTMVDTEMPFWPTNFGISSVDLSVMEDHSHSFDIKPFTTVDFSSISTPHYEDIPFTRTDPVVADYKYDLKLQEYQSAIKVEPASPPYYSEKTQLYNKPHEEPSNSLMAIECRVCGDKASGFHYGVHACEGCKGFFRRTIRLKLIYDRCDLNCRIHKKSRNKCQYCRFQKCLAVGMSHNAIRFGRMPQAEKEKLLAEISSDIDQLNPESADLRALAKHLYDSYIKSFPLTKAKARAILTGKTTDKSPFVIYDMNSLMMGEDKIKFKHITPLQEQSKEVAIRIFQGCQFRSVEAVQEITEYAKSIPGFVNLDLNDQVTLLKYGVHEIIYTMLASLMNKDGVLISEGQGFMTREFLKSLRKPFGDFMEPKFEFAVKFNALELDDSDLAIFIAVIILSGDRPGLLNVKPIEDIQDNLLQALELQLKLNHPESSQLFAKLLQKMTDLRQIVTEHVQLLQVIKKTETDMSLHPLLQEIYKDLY
# Protocol Summary: Assay of binding to the PPARγ2 ([3H]BRL-49853 displacement)
# Protocol: Assay of Binding to the PPARγ2 The cDNA encoding for the open reading frame of the hPPARγ2 is amplified by PCR (polymerase chain reaction) and inserted in the plasmid pGEX-4T-2. The reaction mixture was transferred to a Multiscreen Durapore (Millipore) microplate containing glutathione-Sepharose 4B in every well. […] Then, 800 μL of scintillation liquid were added to the elution and the contained radioactivity was quantified by liquid scintillation spectroscopy (Microbeta Wallac, Perkin Elmer).
pKi: −log10 of the molar value.
Assay Readout: pKi

Which pKi is reported for this molecule? O=C(N[C@@H](Cc1ccc(OCc2ccccc2)cc1)C(=O)O)c1ccc(OCc2ccccc2-c2ccccc2)cc1
> 6.00

* * *

# Measurement Target: GST-hPPARγ2 (Homo sapiens)
# Construct: the complete cDNA of the […] human PPARs were cloned into pGEX4T2; made in house; host or cells: Escherichia coli BL21 (DE3)
# Protocol Summary: Assay of binding to the PPARγ2 ([3H]BRL-49853 displacement)
# Measurement Setup: Table 19; GST-hPPARγ2, [3H]BRL-49853 100 nM; read-out: Affinity PPARγ(1)
pKi: −log10 of the molar value.
Overview of reported pKi across a group of compounds:

INSERT INTO measurements (compound, measured_result) VALUES
  ('O=C(N[C@@H](Cc1ccc(OCc2ccccc2)cc1)C(=O)O)c1cccc(OCc2ccc(-c3ccccc3)cc2)c1 [Example 187]', '> 6.00'),
  ('CCCCc1ccc(COc2ccc(C(=O)N[C@@H](CC3CCCCC3)C(=O)O)cc2)cc1 [Example 210]', '> 6.00'),
  ('O=C(O)CCN(Cc1ccc(OCc2ccccc2)cc1)C(=O)c1cccc(OCCN(Cc2ccccc2)Cc2ccccc2)c1 [Example 164]', '5.52 to 6.00'),
  ('O=C(O)CCN(Cc1cccc(OCc2ccccc2)c1)C(=O)c1cccc(OCCN(Cc2ccccc2)Cc2ccccc2)c1 [Example 163]', '> 6.00'),
  ('Cc1nc2ccccc2nc1OCCOc1ccc(C(=O)N(CCC(=O)O)Cc2cccc(OCc3ccccc3)c2)cc1 [Example 170]', '5.52 to 6.00');

What value of pKi has been reported for the following compound? CCCCc1ccc(COc2ccc(C(=O)N(CCC(=O)O)Cc3cccc(OCc4ccccc4)c3)cc2)cc1 [Example 218]
> 6.00

For COC(=O)[C@H](Cc1ccc(OCc2ccccc2)cc1)NC(=O)c1ccc(OCc2cccc(Cl)c2)cc1 [Example 21] , what is its reported pKi?
> 6.00

Request the reported pKi associated with Cc1ccccc1COc1ccc(C(=O)N[C@@H](Cc2ccc(OCc3ccccc3)cc2)C(=O)O)cc1 [Example 243]
> 6.00

So what does the record say about pKi for O=C(N[C@@H](Cc1ccc(OCc2ccccc2)cc1)C(=O)O)c1ccc(OCc2ccccc2Br)cc1 [Example 238] ?
> 6.00

* * *

# Measurement Target: PPARγ LBD (Homo sapiens)
# Construct: expressed in transfected cells; host or cells: COS-7
# Sequence (P37231 238-503 limits assumed): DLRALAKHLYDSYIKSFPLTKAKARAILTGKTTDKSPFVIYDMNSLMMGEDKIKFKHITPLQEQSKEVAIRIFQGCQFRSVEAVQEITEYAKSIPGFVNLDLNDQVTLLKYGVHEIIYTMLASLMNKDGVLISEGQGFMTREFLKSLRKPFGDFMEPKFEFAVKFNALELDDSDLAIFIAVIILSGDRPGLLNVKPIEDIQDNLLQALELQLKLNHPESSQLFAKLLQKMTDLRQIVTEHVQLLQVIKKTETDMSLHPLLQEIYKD
# Protocol Summary: LBD-hPPARs transactivation assay (GAL4-LBD luciferase reporter in COS-7 cells)
# Assay type: cell-based
# Measurement Setup: 48 h
# Text: LBD-hPPARs Transactivation Assay COS-7 cells were cultivated in 24-well plates and transfected with the pFACMV plasmids that encode the chimeric proteins containing the GAL4 DNA binding domain fused to the PPARγ LBD. The reporter plasmid for the foregoing constructions was pFR-Luc, which contains five repetitions of the GAL4-response element in front of a promoter that controls the transcription of the luciferase gene. Lipofectamine was used as a transfection agent. […]
Assay Readout: Functional activity PPARγ

INSERT INTO assay_data (item_smiles, measurement_target, measured_result) VALUES
  ('Cc1nc2ccccc2nc1OCCOc1ccc(C(=O)N[C@@H](Cc2ccc(OCc3ccccc3)cc2)C(=O)O)cc1', 'PPARγ LBD (Homo sapiens)', 'Partial agonist'),
  ('O=C(N[C@@H](Cc1ccc(OCc2ccccc2)cc1)C(=O)O)c1cccc(OCc2ccc(-c3ccccc3)cc2)c1', 'PPARγ LBD (Homo sapiens)', 'Agonist'),
  ('CCCCOc1ccc(COc2ccc(C(=O)N[C@@H](CC3CCCCC3)C(=O)O)cc2)cc1', 'PPARγ LBD (Homo sapiens)', 'Partial agonist'),
  ('CCCCc1ccc(COc2ccc(C(=O)N[C@@H](CC3CCCCC3)C(=O)O)cc2)cc1', 'PPARγ LBD (Homo sapiens)', 'Agonist');
